- System: SF-539 CNS
- PROTOCOL_SUMMARY: NCI-60 one-dose screen, 48 h
- EXPERIMENTAL_PARAMETERS: 10 µM unless noted
The panel holds about 83,000 compounds, 20% with a hit somewhere; the sample as a whole holds those more often. Activity calls are given as the source filed them. The calls were made as follows: active = growth percent below 10; inactive = the rest.
Choose the fitting class; nothing outside 1 = active, -1 = inactive is accepted.

What is the recorded call for this compound in the test? CC(C)(O)c1cccc(F)c1
-1

# outcome recorded in this test, key = O=S(=O)(Nc1ccsc1-c1nc(-c2ccccc2)no1)c1cc(Cl)cc(Cl)c1
-1

Write down the call the test reported for this compound. Item: COc1ccc(C(=O)/C=C/C23c4ccccc4C(c4ccccc42)C2C(=O)NC(=O)C23)cc1 (stereo not drawn)
-1

Which result was noted for this compound in the test: Cc1csc(NC(=O)c2sc3nc(-c4cccs4)ccc3c2N)n1
-1

Outcome logged for Clc1ccc(/C=C/c2nc(Nc3ccc(Cl)cc3)c3ccccc3n2)cc1 in this assay:
-1

# fetch the recorded call for O=C(O)CC1Sc2ccccc2NC1=O (stereo not drawn) here
-1

For this compound, state the assay outcome: Fc1ccc(Nc2nc(Nc3ccc(-c4nc5ccccc5[nH]4)cc3)c3cn[nH]c3n2)cc1
-1

Call for entry CCNCCNc1cc(-c2ccc(Cl)cc2)c(C#N)c2nc3ccccc3n12 :
1

----------
- Tested on: HCT-15 colon
- PROTOCOL_SUMMARY: NCI-60 one-dose screen, 48 h
- EXPERIMENTAL_PARAMETERS: 10 µM unless noted
This is part of a sample that, as a whole, favours compounds with a hit. Of some 83,000 tested, about 20% had one in any assay. Activity calls are given as the source filed them. How the source made its calls: active means growth percent below 10; inactive means the rest.
Please answer using one outcome listed in true (1) (active), false (0) (inactive)

Recorded test call requested for Nc1ccc2c(S(=O)(=O)O)ccc(S(=O)(=O)O)c2c1
false (0)

# lookup: test call for CO/C(=C1/NC(=O)C(Cc2ccc(O)c(Br)c2)N(C)C(=O)C(C)NC(=O)CCC/C=C(\C)CCC(C)OC1=O)c1ccccc1 (stereo not given)
true (1)

What did the test return for NC(=S)N/N=C/C(=O)O ?
false (0)

Write down the call the test reported for this compound. Item: CC(=O)C(C(C)=O)c1nc2sc3cc(Cl)ccc3n2c(=N)c1C#N
false (0)

Test call, this compound: CCCCN(CCCC)CCCn1c(=O)c2sc3ncccc3c2n2nnc(-c3ccccc3)c12
false (0)

----------
Would you mind telling me the reported growth of each entry?
- System: U251 CNS
- PROTOCOL_SUMMARY: NCI-60 one-dose screen, 48 h (100 = growth as untreated, 0 = no growth, -100 = all killed)
- EXPERIMENTAL_PARAMETERS: 10 µM unless noted
About 83,000 compounds went through this panel and 20% of them were active in at least one assay; those are over-represented in the sample as a whole. The source made the active and inactive calls. Rule for the calls: active = growth percent below 10; inactive = the rest.

Item Clc1ccc(-c2nnc(Cn3ccnc3)o2)cc1 : provide growth
106% (inactive)

Answer with the recorded growth for the compound listed here: O=C(O)c1ccccc1C(=O)Nc1ccc(Cl)cc1
89.9% (inactive)

Provide only the value of recorded growth for Cc1nc2ccc(C(=O)NCc3cc(C(=O)O)c(C)o3)cc2nc1C
96.8% (inactive)

Provide only the value of recorded growth for COc1ccc(Oc2nc(Nc3ccc(N4CCOCC4)nc3)ncc2NC(=O)c2cc(OC)cc(OC)c2)cc1
84.2% (inactive)

Give the reported growth for this compound. CCNCCNc1cc(-c2ccc(Cl)cc2)c(C#N)c2nc3ccccc3n12
-53.2% (active)

Return growth for the following compound: CNCCNc1nc2ccccc2c2c(=O)c3cc(F)ccc3oc12
50.2% (inactive)

Name the recorded growth of the compound listed here: NC(=Nc1ccc(N)cc1)C(N)=Nc1ccc(N)cc1
101% (inactive)

Assign growth to the following record: CCCCOc1nc2ccc(Cl)cc2cc1/C=C/C(=O)/C=C1/CC(c2cc3cc(Cl)ccc3nc2OCCCC)Nc2ccccc2N1 (stereo unspecified)
96.4% (inactive)

Query growth for O=C1NC(=S)S/C1=C\N1N=C(c2ccc(Cl)cc2)CC1c1ccc(F)cc1 (stereo unspecified)
68.7% (inactive)

Give the reported value of growth for this record: N=C(N)c1ccc(-c2ccc(-c3ccc(Cl)c(Cl)c3)o2)nc1
-57.1% (active)

Identify measured growth associated with Cn1cc(Nc2nccc(-c3ccc(N4CCCC4)c(C#N)c3)n2)cn1
35.8% (inactive)

Report growth, nothing else, for this compound: COc1cc2c(cc1OC)-c1ccc3cc4c(cc3c1N(CCCN(C)C)C2)OCO4
18.2% (inactive)

Read off the recorded growth for COc1cc(NC(=O)c2cccc(-c3cc(=O)c4c(O)c(OC)c(OC)cc4o3)c2)cc(OC)c1OC
44.8% (inactive)

Entry C=CCO[C@H]1CO[C@H]2[C@@H]1OC[C@@H]2Oc1ccc(Nc2ccnc(Nc3ccc(O[C@H]4CO[C@H]5[C@@H]4OC[C@@H]5OCC=C)c(Cl)c3)n2)cc1Cl needs its growth filled in; supply it.
-59.5% (active)

Provide growth value for the following compound: C[C@@H]1CC[C@@H]2[C@@H]1[C@H](OC(=O)/C=C/c1ccccc1)[C@]1(C3CCCCC3)C[C@@H](NC(=O)CO)[C@@]2(C)O1
111% (inactive)

Please look at this compound and report its growth: Clc1cnc(Nc2ccc(OCCN3CCCC3)cc2)nc1NCc1ccco1
19.6% (inactive)
